target: sigma 1 (h) (Homo sapiens (Human)); assay: Sigma-1 binding assay
pKi: −log10 of the molar value.
observationType: pKi

{"columns": ["smi", "observationType", "reportedResult"],
 "data": [
  ["CC1(C)CCN(C2CCCC2)Cc2cc(-c3ccc(C(F)(F)F)cc3)ccc21", "pKi", "< 6.30"]
]}

----------
Known Ki of a selection of molecules
biological target: sigma 1 (h) (Homo sapiens (Human), UniProt Q99720); test: Sigma-1 binding assay; details: [3H](+)pentazocine, Jurkat cells; read-out: Sigma-1 Ki
Sequence (Q99720 whole entry): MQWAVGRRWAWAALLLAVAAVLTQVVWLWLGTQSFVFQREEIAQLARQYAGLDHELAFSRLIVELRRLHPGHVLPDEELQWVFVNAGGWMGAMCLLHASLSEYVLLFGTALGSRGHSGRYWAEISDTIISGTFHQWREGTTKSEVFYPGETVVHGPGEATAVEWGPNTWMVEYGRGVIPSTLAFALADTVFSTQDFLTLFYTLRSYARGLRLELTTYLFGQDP
observationType: Ki

{"columns": ["molecule", "reportedResult"],
 "data": [
  ["CC1(C)CN(C(=O)c2cc(F)cc(Cl)c2)Cc2cc(N3CCN(C4CCCC4)CC3)ccc21 [Compound 38]", "0.1 to 5 nM"],
  ["CC1(C)CCN(C(=O)C2CCCC2)Cc2cc(N3CCC(N4CCOCC4)CC3)ccc21 [Compound 85]", "5 to 50 nM"],
  ["CCCN1CCN(c2ccc3c(c2)CN(C(=O)OCc2ccccc2)CC3(C)C)CC1 [Compound 2]", "5 to 50 nM"],
  ["CCCN1CCN(c2ccc3c(c2)CN(C(=O)OCc2ccccc2)CCC3(C)C)CC1 [Compound 8]", "0.1 to 5 nM"],
  ["CC1(C)CN(CCCO)Cc2cc(-c3ccc(C(F)(F)F)cc3)ccc21 [Compound 5]", "100 to 500 nM"],
  ["COC(=O)CCN1CCN(c2ccc3c(c2)CN(C(=O)OCc2ccccc2)CCC3(C)C)CC1 [Compound 9]", "5 to 50 nM"],
  ["CN1CCN(c2ccc3c(c2)CN(C(=O)OCc2ccccc2)CC3(C)C)CC1 [Compound 1]", "100 to 500 nM"],
  ["CC1(C)CCN(S(=O)(=O)c2cccc(Cl)c2)Cc2cc(N3CCC(N4CCOCC4)CC3)ccc21 [Compound 80]", "0.1 to 5 nM"],
  ["CC1(C)CCN(C(=O)C2CCCC2)Cc2cc(N3CCN(C4CCCC4)CC3)ccc21 [Compound 73]", "0.1 to 5 nM"],
  ["CN1CCN(c2ccc3c(c2)CN(C(=O)OCc2ccccc2)CCC3(C)C)CC1 [Compound 7]", "5 to 50 nM"],
  ["CC(C)OC(=O)N1CCC(C)(C)c2ccc(N3CCN(C4CCCC4)CC3)cc2C1 [Compound 79]", "0.1 to 5 nM"],
  ["CC1(C)CCN(C(=O)c2cccc3c2OCO3)Cc2cc(N3CCC(N4CCOCC4)CC3)ccc21 [Compound 84]", "5 to 50 nM"],
  ["CC1(C)CCN(CCCO)Cc2cc(-c3ccc(C(F)(F)F)cc3)ccc21 [Compound 11]", "> 500 nM"],
  ["CC(C)OC(=O)N1Cc2cc(N3CCN(C4CCCC4)CC3)ccc2C(C)(C)C1 [Compound 45]", "0.1 to 5 nM"],
  ["CC1(C)CN(C(=O)OC2CCCCC2)Cc2cc(N3CCN(C4CCCC4)CC3)ccc21 [Compound 43]", "0.1 to 5 nM"],
  ["CC1(C)CCN(C(=O)C2CCCCC2)Cc2cc(N3CCC(N4CCOCC4)CC3)ccc21 [Compound 86]", "0.1 to 5 nM"],
  ["COC(=O)CCN1CCN(c2ccc3c(c2)CN(C(=O)OCc2ccccc2)CC3(C)C)CC1 [Compound 3]", "100 to 500 nM"]
]}

----------
Observed IC50 values for hERG (Homo sapiens (Human), UniProt Q12809) are listed in what follows.

{"columns": ["compound", "IC50"],
 "data": [
  ["Cc1cc(-c2ccc3c(c2)CN(CCC(=O)N2CCc4ccccc4C2)CCC3(C)C)cc(C)n1 [Compound 111]", "2.22 µM"],
  ["CC1(C)CCN(C(=O)C2CCCC2)Cc2cc(N3CCN(C4CCCC4)CC3)ccc21 [Compound 73]", "2.6 µM"],
  ["CC1(C)CCN(C2CCCCC2)Cc2cc(-c3ccc(C(F)(F)F)cc3)ccc21 [Compound 32]", "> 3 µM"],
  ["CC1(C)CN(C(=O)c2cc(F)cc(Cl)c2)Cc2cc(N3CCN(C4CCCC4)CC3)ccc21 [Compound 38]", "2.04 µM"],
  ["CC1(C)CCN(C(=O)c2cccc3c2OCO3)Cc2cc(N3CCC(N4CCOCC4)CC3)ccc21 [Compound 84]", "> 3 µM"],
  ["CC(C)OC(=O)N1CCC(C)(C)c2ccc(N3CCN(C4CCCC4)CC3)cc2C1 [Compound 79]", "> 3 µM"],
  ["CC1(C)CCN(C2CCCC2)Cc2cc(-c3ccc(C(F)(F)F)cc3)ccc21 [Compound 10]", "> 3 µM"],
  ["CC1(C)CCN(C(=O)C2CCCCC2)Cc2cc(N3CCC(N4CCOCC4)CC3)ccc21 [Compound 86]", "> 3 µM"],
  ["CC1(C)CCN(S(=O)(=O)c2cccc(Cl)c2)Cc2cc(N3CCC(N4CCOCC4)CC3)ccc21 [Compound 80]", "> 3 µM"],
  ["Cc1cc(-c2ccc3c(c2)CN(CCC(=O)N2CCC(C)CC2)CCC3(C)C)cc(C)n1 [Compound 131]", "> 3 µM"],
  ["CC1(C)CN(C(=O)OC2CCCCC2)Cc2cc(N3CCN(C4CCCC4)CC3)ccc21 [Compound 43]", "2.77 µM"]
]}

----------
molecular target: sigma 1 (h) (Homo sapiens (Human), UniProt Q99720); assay: Sigma-1 binding assay; conditions: [3H](+)pentazocine, Jurkat cells; read-out: Sigma-1 Ki
pKi: −log10 of the molar value.
Known pKi of a selection of molecules
observationType: pKi

{"columns": ["smi", "observationType", "reportedResult"],
 "data": [
  ["CC1(C)CN(C2CCCC2)Cc2cc(-c3ccc(C(F)(F)F)cc3)ccc21", "pKi", "< 6.30"],
  ["CCCN1Cc2cc(-c3ccc(C(F)(F)F)cc3)ccc2C(C)(C)C1", "pKi", "< 6.30"],
  ["CC1(C)CN(S(=O)(=O)c2cccc(Cl)c2)Cc2cc(N3CCN(C4CCCC4)CC3)ccc21", "pKi", "8.30 to 10.00"],
  ["CCCN1CCC(C)(C)c2ccc(-c3ccc(C(F)(F)F)cc3)cc2C1", "pKi", "< 6.30"]
]}

----------
molecular target: α1a (h) (Homo sapiens (Human), UniProt P35348); test: α1A adrenergic agonist effect assay; assay type: cell-based; conditions: agonist effect, CHO cells
Sequence (P35348 whole entry): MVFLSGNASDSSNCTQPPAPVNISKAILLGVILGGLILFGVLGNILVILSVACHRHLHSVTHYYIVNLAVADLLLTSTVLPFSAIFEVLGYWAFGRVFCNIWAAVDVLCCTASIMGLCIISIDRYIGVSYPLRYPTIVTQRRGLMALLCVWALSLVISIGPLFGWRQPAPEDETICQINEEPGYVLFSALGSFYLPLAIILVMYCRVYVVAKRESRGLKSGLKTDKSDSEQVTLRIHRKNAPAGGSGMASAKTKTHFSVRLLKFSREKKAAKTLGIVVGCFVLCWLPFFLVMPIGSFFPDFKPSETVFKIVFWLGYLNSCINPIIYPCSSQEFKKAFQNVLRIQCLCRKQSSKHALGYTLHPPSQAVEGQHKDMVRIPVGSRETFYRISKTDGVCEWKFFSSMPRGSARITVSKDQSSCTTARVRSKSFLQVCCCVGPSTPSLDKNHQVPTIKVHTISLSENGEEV

{"columns": ["smi", "IC50"],
 "data": [
  ["CCCN1CCN(c2ccc3c(c2)CN(C(=O)OCc2ccccc2)CC3(C)C)CC1", "> 1000 nM"],
  ["CC1(C)CCN(C2CCCC2)Cc2cc(-c3ccc(C(F)(F)F)cc3)ccc21", "> 1000 nM"]
]}

----------
Known Ki of a selection of compounds
molecular target: Sigma 2 (h) (Homo sapiens (Human)); assay: Sigma-2 binding assay
Sequence (Q5BJF2 whole entry): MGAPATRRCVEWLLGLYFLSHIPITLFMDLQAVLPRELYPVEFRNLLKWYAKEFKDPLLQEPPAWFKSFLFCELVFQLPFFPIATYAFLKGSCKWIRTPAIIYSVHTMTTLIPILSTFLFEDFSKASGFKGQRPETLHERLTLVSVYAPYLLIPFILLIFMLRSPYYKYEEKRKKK

{"columns": ["smi", "Ki"],
 "data": [
  ["Cc1cc(-c2ccc3c(c2)CN(CCC(=O)N2CCC(C)CC2)CCC3(C)C)cc(C)n1", "50 to 100 nM"],
  ["CC1(C)CCN(C2CCCCC2)Cc2cc(-c3ccc(C(F)(F)F)cc3)ccc21", "50 to 100 nM"],
  ["CC1(C)CCN(C2CCCC2)Cc2cc(-c3ccc(C(F)(F)F)cc3)ccc21", "5 to 50 nM"]
]}

----------
Known activation at 1 µM of a selection of compounds
biological target: 5HT2A (Homo sapiens (Human)); experiment: 5HT2A agonist effect assay; assay type: cell-based; settings: 1 μM, read-out: % stimulation relative to control (1 μM)
observationType: activation at 1 µM

{"columns": ["compound", "reportedResult"],
 "data": [
  ["CC1(C)CN(S(=O)(=O)c2cccc(Cl)c2)Cc2cc(N3CCN(C4CCCC4)CC3)ccc21 [Compound 33]", "-1%"],
  ["CC1(C)CCN(C(=O)C2CCCC2)Cc2cc(N3CCC(N4CCOCC4)CC3)ccc21 [Compound 85]", "0%"],
  ["CC(C)OC(=O)N1CCC(C)(C)c2ccc(N3CCN(C4CCCC4)CC3)cc2C1 [Compound 79]", "0%"],
  ["CC1(C)CCN(C2CCCCC2)Cc2cc(-c3ccc(C(F)(F)F)cc3)ccc21 [Compound 32]", "2%"]
]}

----------
target: α1b (h) (Homo sapiens (Human)); experiment: α1B adrenergic antagonist effect assay; assay type: cell-based; details: CHO cells
Sequence (P35368 whole entry): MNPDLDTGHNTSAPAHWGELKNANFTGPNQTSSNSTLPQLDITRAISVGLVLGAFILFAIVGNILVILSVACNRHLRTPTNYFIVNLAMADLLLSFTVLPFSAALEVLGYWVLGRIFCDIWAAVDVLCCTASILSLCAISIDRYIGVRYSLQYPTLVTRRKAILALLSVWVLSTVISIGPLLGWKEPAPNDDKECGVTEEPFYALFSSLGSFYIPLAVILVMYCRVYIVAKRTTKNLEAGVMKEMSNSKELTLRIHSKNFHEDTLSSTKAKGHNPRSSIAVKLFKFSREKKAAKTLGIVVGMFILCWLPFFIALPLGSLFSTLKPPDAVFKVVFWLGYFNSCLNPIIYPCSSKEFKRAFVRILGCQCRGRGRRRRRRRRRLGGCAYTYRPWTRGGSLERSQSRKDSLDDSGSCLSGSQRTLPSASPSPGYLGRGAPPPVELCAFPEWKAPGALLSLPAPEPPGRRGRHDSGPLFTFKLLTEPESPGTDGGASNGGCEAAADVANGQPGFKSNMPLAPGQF
pIC50: −log10 of the molar value.

{"columns": ["smi", "assayedSystem", "pIC50"],
 "data": [
  ["CC1(C)CCN(C2CCCC2)Cc2cc(-c3ccc(C(F)(F)F)cc3)ccc21", "α1b (h) (Homo sapiens (Human))", "< 6.00"],
  ["CCCN1CCN(c2ccc3c(c2)CN(C(=O)OCc2ccccc2)CC3(C)C)CC1", "α1b (h) (Homo sapiens (Human))", "< 6.00"]
]}
